Numbers sourced from paper PMC13083723.

System: Vero-E6
assay_overview: primary screen, phospholipidosis by LipidTOX staining; higher = more effect of the substance
run_conditions: 10 µM
Out of some 5,400 compounds screened, about 190 (3.5%) showed an effect of 50% or more. Shown is part of a subset that was picked to be rich in strong results.
measured_parameter: result_ITMP
I'd appreciate it if you wrote the number followed by its unit.

Use these answered entries as a reference point.
molecule: CC[C@@H]1C(=O)N(C)c2cnc(Nc3ccc(C(=O)NC4CCN(C)CC4)cc3OC)nc2N1C1CCCC1
result_ITMP: 66.8%
//
molecule: O=C(O)c1cc(O)c2ccccc2n1
result_ITMP: 3.47%
//
molecule: COc1cc(OC2CCN(C)CC2)ccc1Nc1ncc2c(n1)n(C1CCCC1)c(=O)n2C
result_ITMP: 37.2%
//
molecule: COc1cc(C(=O)NC2CCN(C)CC2)c(F)cc1Nc1ncc2c(n1)N(C1CCCC1)CC(F)(F)C(=O)N2C
result_ITMP: 69.4%
//
molecule: CN(C)CC[C@@H](c1ccc(Cl)cc1)c1ccccn1 [R4A_0004036_001 / SPE_K39462424]
result_ITMP: 22.6%

Hello, I would appreciate it if you could give result_ITMP for each entry below.
1. COc1cc2c(N3CCN(C(=O)Nc4ccc(OC(C)C)cc4)CC3)ncnc2cc1OCCCN1CCCCC1
2. CC[C@@H]1C(=O)N(C)c2cnc(Nc3ccc(C(=O)N[C@H]4CC[C@H](N5CCN(CC6CC6)CC5)CC4)cc3OC)nc2N1C(C)C
3. Cc1cc(CN2CCN(c3c(Br)cnc4[nH]c(-c5ccc(N6CCN(C)CC6)cc5)nc34)CC2)no1
4. CC(C)CCN1c2nc(Nc3cc(F)c(O)c(F)c3)ncc2N(C)C(=O)C1C (stereo not drawn)

Given back:
1. 23%
2. 81.5%
3. -0.42%
4. 17.5%

----------
System: Vero-E6
assay_overview: primary screen, phospholipidosis by LipidTOX staining; higher = more effect of the substance
run_conditions: 10 µM
In all, about 5,400 compounds went through this assay and about 190 (3.5%) showed an effect of 50% or more. The full list was thinned out, with strong results kept by preference.
Give result_ITMP for every item shown.
Quick note: number first, unit second.

Worked set:
molecule: N[C@@H](CSS(=O)(=O)[O-])C(=O)O
measurement_target: Vero-E6
result_ITMP: -1.62%

molecule: N=C(N)Nc1nc(CSCCN/C=N/S(=O)(=O)c2ccc(Br)cc2)cs1
measurement_target: Vero-E6
result_ITMP: 0.59%

molecule: CCCCCCCCCCCCCCCC=O
measurement_target: Vero-E6
result_ITMP: -3.07%

molecule: CO[C@@]1(NC(=O)Cc2cccs2)C(=O)N2C(C(=O)[O-])=C(COC(N)=O)CS[C@@H]21
measurement_target: Vero-E6
result_ITMP: -2.27%

molecule: C=CCN.ClCC1CO1 (stereo not shown)
measurement_target: Vero-E6
result_ITMP: -4.42%

molecule: Cc1ccc(C(=O)Nc2ccc(CN3CCN(C)CC3)c(C(F)(F)F)c2)cc1C#Cc1cnc2[nH]ncc2c1
measurement_target: Vero-E6
result_ITMP: 6.57%

Below is a list of molecules. For each, state its recorded result_ITMP.
1. CC1(C)[C@@H]2CC[C@@]1(C)C(=O)C2 [R4A_0000828_001 / SPE_K10034334]
2. CC(=O)C(=O)[O-]

Given back:
1: -2.3%; 2: -8.52%

For every item in the list below, what is its measured result_ITMP?
1. Cc1onc(-c2c(F)cccc2Cl)c1C(=O)N[C@@H]1C(=O)N2[C@@H]1SC(C)(C)[C@@H]2C(=O)[O-]
2. CC(C)(C)C(=O)CN1C(=O)[C@H](NC(=O)Nc2cccc(C(=O)O)c2)CN(C2CCCCC2)c2ccccc21

Given back:
1: -6.63%; 2: -0.97%

----------
System: Vero-E6
assay_overview: primary screen, phospholipidosis by LipidTOX staining; higher = more effect of the substance
run_conditions: 10 µM
In all, about 5,400 compounds went through this assay and about 190 (3.5%) showed an effect of 50% or more. The entries come from a sample that favours strong results as a whole.
measured_parameter: result_ITMP (%)
One number for each entry, in %.

Example entries begin here.
compound: CCn1c(-c2ccc(Cl)cc2)n[nH]c1=O
measurement_target: Vero-E6
measured_parameter: result_ITMP
uom: %
value_measured: -4.76
--
compound: CCN1CCC(n2cc(CNc3cc(Cl)c4ncc(C#N)c(Nc5ccc(F)c(Cl)c5)c4c3)nn2)CC1
measurement_target: Vero-E6
measured_parameter: result_ITMP
uom: %
value_measured: 9.34
--
compound: O=C(O[C@H]1CN2CCC1CC2)N1CCc2ccccc2[C@@H]1c1ccccc1
measurement_target: Vero-E6
measured_parameter: result_ITMP
uom: %
value_measured: 59.2
--
compound: O=C(CCn1cnc2c(O)ncnc21)Nc1ccc(C(=O)O)cc1
measurement_target: Vero-E6
measured_parameter: result_ITMP
uom: %
value_measured: -5.54
--
compound: CN1CCCC(n2nc(Cc3ccc(Cl)cc3)c3ccccc3c2=O)CC1 (centres unmarked)
measurement_target: Vero-E6
measured_parameter: result_ITMP
uom: %
value_measured: 57.2
--
compound: COc1cc2c3cc1Oc1cc(ccc1O)C[C@@H]1c4c(cc(OC)c(O)c4Oc4ccc(cc4)C[C@@H]3N(C)CC2)CC[N+]1(C)C
measurement_target: Vero-E6
measured_parameter: result_ITMP
uom: %
value_measured: -3.39
--
compound: CO[C@H]1CC[C@H](N(c2cc(C3=CCCCC3)sc2C(=O)[O-])C(=O)[C@H]2CC[C@H](C)CC2)CC1
measurement_target: Vero-E6
measured_parameter: result_ITMP
uom: %
value_measured: -0.87
--
compound: C[C@H](N)C(=O)N[C@@]1(C(=O)O)C[C@@H](Sc2nnc[nH]2)[C@H]2[C@H](C(=O)O)[C@H]21
measurement_target: Vero-E6
measured_parameter: result_ITMP
uom: %
value_measured: -1.74
--
compound: Cc1ccccc1C(c1ccccc1C)N1C2CCC1CC(O)(c1ccccc1)C2 (centres unmarked)
measurement_target: Vero-E6
measured_parameter: result_ITMP
uom: %
value_measured: -2.82
--
compound: CCOC(=O)c1ccc(-n2cc(Cc3cnc(OCC)nc3)c(=O)nc2SCc2ccc(F)cc2)cc1
measurement_target: Vero-E6
measured_parameter: result_ITMP
uom: %
value_measured: -1.15

For the 6 compounds below, give their result_ITMP values.
1. C[C@H](NC(=O)CCc1nc2ccccc2c(=O)[nH]1)c1ccccc1 [R4A_0003503_001 / SPE_A63444178]
2. Nc1ncnc2c1c(-c1cccc(OCc3ccccc3)c1)cn2C1CC(CN2CCCC2)C1 (stereo in doubt)
3. COc1cc2ncc(-c3ccccc3)nc2cc1OC
4. CN1C/C=C/CCOc2cccc(c2)-c2ccnc(n2)Nc2cccc(c2)C1
5. Nc1ncnc2c1c(-c1ccc(Oc3ccccc3)cc1)nn2C1CCCC1
6. COc1ccc2cc1Oc1ccc(cc1)C[C@H]1c3cc(c(OC)cc3CCN1C)Oc1c(OC)c(OC)cc3c1[C@H](C2)N(C)CC3

Given back:
1: 0.66; 2: 41.5; 3: -10.1; 4: -2.04; 5: -1.17; 6: 17.4

Lab note: each compound below needs its result_ITMP filled in.
1. C1=C/COCc2cc(ccc2OCCN2CCCC2)Nc2nccc(n2)-c2cccc(c2)COC/1
2. C[C@]12CC[C@H](O)C[C@H]1CC[C@@H]1[C@@H]2CC[C@]2(C)[C@@H](c3ccc(=O)oc3)C[C@H]3O[C@]132
3. COc1cc(OC)cc(N(CCNC(C)C)c2ccc3ncc(-c4cnn(C)c4)nc3c2)c1

Given back:
[78.8, -2.23, 55.2]

Report result_ITMP for every entry below.
1. COc1ccc(CCN(C)CCc2ccc(OC)c(OC)c2)cc1OC
2. CN1CCC2=C(C1)C(c1ccccc1)c1ccccc12 (centres unmarked)
3. Cn1cc(-c2ccc3ncc(Cc4ccc5ncccc5c4)n3n2)cn1
4. CC1(S(=O)(=O)[O-])CC(=O)c2ccccc2C1=O (centres unmarked)
5. O=C(Nc1ccc(F)cc1)N1CCc2ccccc2C1c1ccc(C(F)(F)F)cc1 (centres unmarked)
6. COC1CCN(C(=O)c2cc(Cc3n[nH]c(=O)c4ccccc34)ccc2F)CC1

Given back:
1: -1.15; 2: 6.76; 3: 3.96; 4: -0.84; 5: -0.7; 6: 2.83

----------
Tested on: Vero-E6
assay_overview: primary screen, phospholipidosis by LipidTOX staining; higher = more effect of the substance
run_conditions: 10 µM
Text: To measure drug-induced PLD in Vero-E6 cells, we used the HCS LipidTOX Red Phospholipidosis Detection Reagent (Invitrogen, #H34351), which is non-toxic to cell growth and remains well retained after aldehyde fixation. […]
Among all 5,400 compounds or so, about 190 (3.5%) showed an effect of 50% or more. This excerpt belongs to a sample that is enriched for strong results.
measured_parameter: result_ITMP (%)
Answers are plain numbers, in %.

Guide cases for result_ITMP, answers given:
compound: C[C@H]1O[C@@H](O[C@H]2CC[C@@]3(C)[C@H](CC[C@@H]4[C@@H]3C[C@@H](O)[C@]3(C)[C@@H](C5=CC(=O)OC5)CC[C@]43O)C2)C[C@H](O)[C@@H]1O[C@H]1C[C@H](O)[C@H](O[C@H]2C[C@H](O)[C@H](O[C@@H]3O[C@H](CO)[C@@H](O)[C@H](O)[C@H]3O)[C@@H](C)O2)[C@@H](C)O1
value_measured: -9.7
//
compound: CC(C)c1nc(N(C)S(C)(=O)=O)nc(-c2ccc(F)cc2)c1/C=C/[C@@H](O)C[C@@H](O)CC(=O)[O-]
value_measured: -8.19
//
compound: CCN(CC)CCOc1ccc2c(c1)C(=O)c1cc(OCCN(CC)CC)ccc1-2
value_measured: 57.2
//
compound: CC1(C)[C@@H]2C[C@H]1[C@@](C)(O)[C@@H](O)C2
value_measured: -2.34
//
compound: O=C(c1ccc(-c2ccc(Cl)cc2)o1)N(Cc1ccccn1)c1ccc(N2CCNCC2)cc1
value_measured: 104

I need result_ITMP for every entry listed below, if you could help.
1. CCCCc1nc(Cl)c(C(=O)O)n1Cc1ccc(-c2ccccc2-c2nnn[nH]2)cc1
2. O=S(=O)([O-])c1ccc(O)cc1
3. CC(N)Cc1c[nH]c2ccc(O)cc12 (centres unmarked)
4. CC[C@H]1[C@@H](O)[C@@H]2[C@H](CC[C@]3(C)[C@@H]([C@H](C)CCC(=O)O)CC[C@@H]23)[C@@]2(C)CC[C@@H](O)C[C@@H]12
5. CN1CCCCC1CCN1c2ccccc2Sc2ccc(S(C)=O)cc21 (centres unmarked)
6. CCCCOc1cc(C(=O)OCCN(CC)CC)ccc1N
7. CCCCC[C@H](O)/C=C/[C@@H]1[C@H]2C/C(=C/CCCC(=O)[O-])O[C@H]2C[C@H]1O
8. NCCC(O)(P(=O)([O-])O)P(=O)([O-])O

Given back:
[-4.07, -0.61, -1.42, -0.78, -0.95, 18.9, 0.37, -8.19]

Consider the following items and state reported result_ITMP for each.
1. c1ccc(CNCc2ccc(CN3CCCNCCNCCCNCC3)cc2)nc1
2. CCOc1ccc(C(=O)OCCN(CC)CC)cc1
3. CC[C@H](CC[C@@H](C)[C@H]1CC[C@H]2[C@@H]3CC=C4C[C@@H](O)CC[C@]4(C)[C@H]3CC[C@]12C)C(C)C
4. CSc1ccc2c(c1)N(CCC1CCCCN1C)c1ccccc1S2 (centres unmarked)
5. CC(N)Cc1c[nH]c2ccc(OCc3cccs3)cc12 (centres unmarked)

Given back:
-2
0.82
1.55
68.1
55.2

Please give result_ITMP, item by item, for the list that follows.
1. NC(=O)C1CCCc2c1[nH]c1ccc(Cl)cc21 (centres unmarked)
2. CN(C)CC(O)Cn1c2ccc(Br)cc2c2cc(Br)ccc21 (centres unmarked)
3. CN(C)CCCN1c2ccccc2Sc2ccccc21
4. O=C1[C@@H]2[C@H]3CC[C@H](C3)[C@@H]2C(=O)N1CCCCN1CCN(c2ncccn2)CC1
5. CCn1c(=O)/c(=C2\Sc3ccccc3N2C)s/c1=C/c1cccc[n+]1CC
6. OC(CN1CCNCC1)Cn1c2ccc(Br)cc2c2cc(Br)ccc21 (centres unmarked)

Given back:
[-0.07, 28.6, 37.7, -0.39, -7.97, 123]
